- assayed_target: recombinant human His-ATG7 enzyme (Homo sapiens (Human), UniProt O95352)
- Sequence (O95352 whole entry): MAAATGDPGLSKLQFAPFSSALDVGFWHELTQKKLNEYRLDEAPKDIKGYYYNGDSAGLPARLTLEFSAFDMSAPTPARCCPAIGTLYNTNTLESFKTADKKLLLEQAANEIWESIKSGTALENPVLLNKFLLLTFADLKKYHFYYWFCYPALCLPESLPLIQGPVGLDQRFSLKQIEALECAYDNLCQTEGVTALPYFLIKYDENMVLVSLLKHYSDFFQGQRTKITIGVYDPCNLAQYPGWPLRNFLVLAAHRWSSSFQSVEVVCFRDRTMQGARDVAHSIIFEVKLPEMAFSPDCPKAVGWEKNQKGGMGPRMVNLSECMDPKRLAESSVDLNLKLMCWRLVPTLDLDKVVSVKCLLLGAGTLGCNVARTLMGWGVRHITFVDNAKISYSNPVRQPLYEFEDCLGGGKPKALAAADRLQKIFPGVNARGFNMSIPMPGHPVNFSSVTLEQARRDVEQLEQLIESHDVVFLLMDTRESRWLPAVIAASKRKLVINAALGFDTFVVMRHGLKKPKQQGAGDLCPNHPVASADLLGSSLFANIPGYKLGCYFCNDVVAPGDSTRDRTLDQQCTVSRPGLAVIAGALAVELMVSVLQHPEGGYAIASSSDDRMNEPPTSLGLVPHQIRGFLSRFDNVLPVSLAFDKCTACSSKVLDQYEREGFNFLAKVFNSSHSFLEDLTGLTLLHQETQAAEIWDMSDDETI
- assay_name: ATG7 Enzyme Assay (HTRF/FRET, ATG3-GST and Flag-Gabarap)
- Assay type: biochemical
- recorded_conditions: Concentration 0.123 μM; read-out: Percent Inhibition
- Method: Example 97: ATG7 Enzyme Assay The total volume of the ATG7 enzymatic assay is 50 μL and contains 50 mM HEPES Hemisodium (pH 7.5), 0.05% BSA, 0.01% Tween-20, 25 mM NaCl, 5 mM MgCl2, 10 μM ATP, 250 μM GSH, 5 nM ATG3-GST, 5 nM Flag-Gabarap, 100 μM TCEP and 0.15 nM recombinant human His-ATG7 enzyme. […] After incubation for 2 hours at 24° C., quantification of FRET is performed on the Pherostar™ (BMG Labtech). […]
# Lookup of reported inhibition at 0.123 µM keyed by entry
Quick reminder: number only, in %, skip the unit.

In [3]: df
Out[3]:
                                   molecule                            assayed_target                property  numeric_readout
0  Nc1ncnc2c1c(SCc1ccc(C(F)(F)F)cc1)nn2[C@@H]1O[C@H](COS(N)(=O)=O)[C@@H](O)[C@H]1O  recombinant human His-ATG7 enzyme (Homo sapiens (Human), UniProt O95352)  inhibition at 0.123 µM               82

Form field: reported inhibition at 0.123 µM of Nc1ncnc2c1c(SCCO)nn2[C@@H]1O[C@H](COS(N)(=O)=O)[C@@H](O)[C@H]1O 88

Field request: inhibition at 0.123 µM | item: CSc1nn([C@@H]2O[C@H](COS(N)(=O)=O)[C@@H](O)[C@@H]2F)c2ncnc(N)c12 73

Return reported inhibition at 0.123 µM; argument: Nc1ncnc2c1c(Sc1cccc(Cl)c1)nn2[C@@H]1O[C@H](COS(N)(=O)=O)[C@@H](O)[C@@H]1F 78

Form field: reported inhibition at 0.123 µM of Cc1cccc(CSc2nn([C@@H]3O[C@H](COS(N)(=O)=O)[C@@H](O)[C@H]3O)c3ncnc(N)c23)c1 85

Which inhibition at 0.123 µM is reported for this molecule? Nc1ncnc2c1c(OCCCl)nn2[C@@H]1O[C@H](COS(N)(=O)=O)[C@@H](O)[C@H]1O 41

// lookup inhibition at 0.123 µM for CC(=O)c1nn([C@@H]2O[C@H](COS(N)(=O)=O)[C@@H](O)[C@H]2O)c2ncnc(N)c12 22

Bench note: what inhibition at 0.123 µM did Nc1ncnc2c1c(OC(F)F)nn2[C@@H]1O[C@H](COS(N)(=O)=O)[C@@H](O)[C@H]1O show? 78

Which inhibition at 0.123 µM value belongs to Nc1ncnc2c1c(SCC1(O)CCCCC1)nn2[C@@H]1O[C@H](COS(N)(=O)=O)[C@@H](O)[C@H]1O ? 64

For the molecule shown here, CC(O)c1nn([C@@H]2O[C@H](COS(N)(=O)=O)[C@@H](O)[C@H]2O)c2ncnc(N)c12 (single isomer, unassigned) [Compound I-23b] , give the reported inhibition at 0.123 µM. 22

Entry under review: Nc1ncnc2c1c(SCc1cccnc1)nn2[C@@H]1O[C@H](COS(N)(=O)=O)[C@@H](O)[C@H]1O . Reported inhibition at 0.123 µM? 73
